- test description: chemical genetic growth profiling, strain panel (AID 1159580);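 further: tested at 20 µM; growth read once vehicle control cultures reached saturation at 30 °C; 1 = growth at the plate median or of vehicle wells; lower values mean less growth of the strain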
- test conditions: S. cerevisiae deletion strains, growth OD, locus YDR162C, strain NBP2, hits give low values
Screen size: about 5,500 compounds; about 2,000 (36%) were called active. About 18% were inconclusive and are not listed. The list shows a part of the results.
Mark T for normalized growth under 1, F if at or over.

query: Input CC(=O)O[C@@H]1CC[C@@]2(C)C(CC[C@]3(C)C2CC=C2C4CC(C)(C)CC[C@]4(C(=O)O)CC[C@]23C)C1(C)C (some centres undefined) ; condition: normalized growth strictly below 1. Does it hold?
result: F

query: Input `C/C=C(/C)C(=O)O[C@H]1CC[C@@]2(C)[C@@H]3CC[C@H]4[C@]5(O)C[C@H](O)[C@@]6(O)[C@@H](CN7C[C@@H](C)CC[C@H]7[C@@]6(C)O)[C@]5(O)C[C@@]42O[C@]13O` ; condition: normalized growth strictly below 1. Does it hold?
result: F

query: Input CC(C)=CCCC1(C)C=Cc2c(O)c3c(c(CC=C(C)C)c2O1)OC12C(=CC4CC1C(C)(C)OC2(C/C=C(\C)C(N)=O)C4=O)C3=O (centres undefined) ; condition: normalized growth strictly below 1. Does it hold?
result: T

query: Input C/C=C(/C)C(=O)OC1CCC2(C)C3CCC4C5(O)CC(O)C6(O)C(CN7CC(C)CCC7C6(C)O)C5(O)CC42OC13O (centres undefined) ; condition: normalized growth strictly below 1. Does it hold?
result: T

query: Input CC(=O)/C=C\[C@@H]1[C@@]2(C)CCCC(C)(C)C2CC[C@@]1(C)O (some centres undefined) ; condition: normalized growth strictly below 1. Does it hold?
result: T

query: Input `Cc1cc(C(C)(C)C)c(O)c(C(C)(C)C)c1` ; condition: normalized growth strictly below 1. Does it hold?
result: T

query: Input `NCCC(=O)N[C@@H](Cc1cnc[nH]1)C(=O)O` ; condition: normalized growth strictly below 1. Does it hold?
result: F

query: Input CCC(C)C(NC)C(=O)O (centres undefined) ; condition: normalized growth strictly below 1. Does it hold?
result: T

query: Input CC(C)=CCCC1(C)C=Cc2c(O)c3c(c(CC=C(C)C)c2O1)OC12C(=CCCC1C(C)(C)O[C@@]2(C/C=C(\C)C(=O)O)C(=O)O)C3=O (some centres undefined) ; condition: normalized growth strictly below 1. Does it hold?
result: T

query: Input CC(=O)O[C@H]1CC[C@@]2(C)C(CC[C@]3(C)C2C(=O)C=C2C4[C@@H](C)[C@H](C)CC[C@]4(C(=O)O)CC[C@]23C)C1(C)C (some centres undefined) ; condition: normalized growth strictly below 1. Does it hold?
result: F

query: Input `CNCc1ccccc1` ; condition: normalized growth strictly below 1. Does it hold?
result: T

query: Input CC(C)=CCCC1(C)C=Cc2c(O)c3c(c(CC=C(C)C)c2O1)OC12C(=CC4CC1C(C)(C)OC2(C/C=C(/C)C(=O)O)C4=O)C3=O (centres undefined) ; condition: normalized growth strictly below 1. Does it hold?
result: T

query: Input C[C@@H]1OC(O[C@H]2C(O[C@H]3CC[C@@]4(C)C(CC[C@]5(C)C4CC=C4C6CC(C)(C)CC[C@]6(C(=O)O)CC[C@]45C)[C@]3(C)CO)OC[C@H](O)[C@@H]2O)[C@H](O)[C@H](O)[C@H]1O (some centres undefined) ; condition: normalized growth strictly below 1. Does it hold?
result: T

query: Input COc1cccc(OC)c1OCCNCC1COc2ccccc2O1 (centres undefined) ; condition: normalized growth strictly below 1. Does it hold?
result: F

query: Input CC(C)=CCCC1(C)C=Cc2c(O)c3c(c(CC=C(C)C)c2O1)OC12C(=CC4CC1C(C)(C)OC2(C/C=C(/C)C(=O)O)C4O)C3=O (centres undefined) ; condition: normalized growth strictly below 1. Does it hold?
result: T

query: Input Fc1ccc(C(c2ccccc2)(c2ccccc2F)n2ccnc2)cc1 (centres undefined) ; condition: normalized growth strictly below 1. Does it hold?
result: T

query: Input CC1(C)CC[C@]2(C(=O)O)CC[C@]3(C)C(=CCC4[C@@]5(C)CC[C@H](O)[C@@](C)(CO)C5CC[C@]43C)C2C1 (some centres undefined) ; condition: normalized growth strictly below 1. Does it hold?
result: F

query: Input `N=C(N)c1ccc(OCCCCCOc2ccc(C(=N)N)cc2)cc1` ; condition: normalized growth strictly below 1. Does it hold?
result: T

query: Input `Clc1ccccc1C(c1ccccc1)(c1ccccc1)n1ccnc1` ; condition: normalized growth strictly below 1. Does it hold?
result: T

----------
- test description: chemical genetic growth profiling, strain panel (AID 1159580);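 further: tested at 20 µM; growth read once vehicle control cultures reached saturation at 30 °C; 1 = growth at the plate median or of vehicle wells; lower values mean less growth of the strain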
- test conditions: S. cerevisiae deletion strains, growth OD, locus YER016W, strain bim1, hits give low values
Out of some 5,500 compounds screened, about 2,000 (36%) were called active. Not shown: some 18% with an inconclusive outcome. Some of the results follow.
measured quantity: normalized growth
Answer with a bare number; do not write a unit.

// normalized growth value for CC(C)CC(N(C)C)C1(c2ccc(Cl)cc2)CCC1 (centres undefined) : 1

// normalized growth value for `Cc1cc(O)cc(C)c1Cl` : 0.874

// normalized growth value for C/C=C(/C)C(=O)OC1CCC2(C)C3CCC4C5(O)CC(O)C6(O)C(CN7CC(C)CCC7C6(C)O)C5(O)CC42OC13O (centres undefined) : 1.07

// normalized growth value for `NCCC(=O)N[C@@H](Cc1cnc[nH]1)C(=O)O` : 1

// normalized growth value for CC1(C)CC[C@@]2(C(=O)O)C(C1)C1=CCC3[C@@]4(C)CC[C@H](O)C(C)(C)C4CC[C@@]3(C)[C@]1(C)C[C@@H]2O (some centres undefined) : 1

// normalized growth value for `COc1cc(C(=O)NCCCCCC(=O)O)cc(OC)c1OC` : 0.981

// normalized growth value for CC1OC(=O)C(C(C)C)NC(=O)C(C(C)C)OC(=O)C(C(C)C)NC(=O)C(C)OC(=O)C(C(C)C)NC(=O)C(C(C)C)OC(=O)C(C(C)C)NC(=O)C(C)OC(=O)C(C(C)C)NC(=O)C(C(C)C)OC(=O)C(C(C)C)NC1=O (centres undefined) : 0.259

// normalized growth value for N#CC(O[C@@H]1O[C@H](CO[C@@H]2O[C@H](CO)[C@@H](O)[C@H](O)[C@H]2O)[C@@H](O)[C@H](O)[C@H]1O)c1ccccc1 (some centres undefined) : 0.977

// normalized growth value for `Cc1cc(O)ccc1Cl` : 0.994

----------
- test description: chemical genetic growth profiling, strain panel (AID 1159580);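 further: tested at 20 µM; growth read once vehicle control cultures reached saturation at 30 °C; 1 = growth at the plate median or of vehicle wells; lower values mean less growth of the strain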
- test conditions: S. cerevisiae deletion strains, growth OD, locus YKL085W, strain MDH1
Screen size: about 5,500 compounds; about 2,000 (36%) were called active. Another 18% or so got no clear call; they are omitted. Rule as the data show it: active = normalized growth mostly below about 0.91 (no sharp cut-off); inconclusive = no clear call, values can overlap the other calls; inactive = mostly above about 0.92. This is one part of the list. Where a SMILES comes first, the peptide text is derived from it. The star is where a group is joined. For = O=C*
The categories you may choose from are y for active, n for inactive

query: What was the test verdict on `COc1cc(N)c(Cl)cc1C(=O)NC1CCN(Cc2ccccc2)CC1` ?
result: n

query: What was the test verdict on Nc1c2c(nc3ccccc13)CCCC2O (stereo unspecified) ?
result: n

query: What was the test verdict on Nc1c2ccccc2nc2ccccc12 (tested in a mixture with another compound) ?
result: y

query: What was the test verdict on `O=C1C(O)=C(O)C(=O)C(O)=C1O` ?
result: n

query: What was the test verdict on `COc1ccc2c3c([nH]c2c1)C(C)=NCC3` ?
result: n

query: What was the test verdict on CSCCC(NC=O)C(=O)NC(Cc1ccccc1)C(=O)O (stereo not drawn) (For-Met-Phe-OH; configuration not given here) ?
result: n

----------
- test description: chemical genetic growth profiling, strain panel (AID 1159580);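 further: tested at 20 µM; growth read once vehicle control cultures reached saturation at 30 °C; 1 = growth at the plate median or of vehicle wells; lower values mean less growth of the strain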
- test conditions: S. cerevisiae deletion strains, growth OD, locus YGR078C, strain PAC10, hits give low values
The campaign covered roughly 5,500 compounds. About 2,000 (36%) were called active. About 18% were inconclusive and are not listed. The list shows a part of the results.
measured quantity: normalized growth
Answer with a bare number; do not write a unit.

// normalized growth value for `O=c1cc(CO)occ1O` : 1.01

// normalized growth value for `CNC(=O)O/N=C\C(C)(C)SC` : 1.01

// normalized growth value for CC1(C)CC[C@]2(C(=O)O)CC[C@]3(C)C(=CCC4[C@@]5(C)CC[C@H](O)[C@@](C)(CO)C5CC[C@]43C)C2C1 (some centres not stated) : 1.03

// normalized growth value for `CC(C)C(=O)c1c(C(C)C)nn2ccccc12` : 0.984

// normalized growth value for COC(=O)c1cccc(NC(=O)CC2C(=O)NCCN2C(=O)c2cccs2)c1 (configuration not stated) : 1.01

// normalized growth value for CC1C(=O)OC2C1CCC1(C)C=CC(=O)C3(C)OC213 (configuration not stated) : 0.989

// normalized growth value for C[C@@H]1O[C@@H](O[C@H]2C[C@@H](O)[C@]3(CO)[C@@H]4C(CC[C@]3(O)C2)[C@@]2(O)CC[C@H](C3COC(=O)C3)[C@@]2(C)C[C@H]4O)[C@H](O)[C@H](O)[C@H]1O (some centres not stated) : 1.01

// normalized growth value for `N[C@H](C(=O)O)[C@@H]1CC(Cl)=NO1` : 0.437

// normalized growth value for O=C(O)/C=C1\CCCc2ccccc2C1O (configuration not stated) : 1

// normalized growth value for `CCCOc1ccccc1-c1nc2n[nH]nc2c(=O)[nH]1` : 1.01

// normalized growth value for `c1cnc(N2CCN(Cc3ccc4c(c3)OCO4)CC2)nc1` : 0.993

// normalized growth value for `Cc1cc(C)c(NC(=O)C[C@H](CC(=O)O)c2cccc3ccccc23)c(C(=O)N2CCC3(CCCC3)CC2)c1` : 0.972

// normalized growth value for `O=C1ON=C(CSc2ccccc2)/C1=C/c1ccc(Cl)cc1` : 0.0528

// normalized growth value for `CCCc1nc(-c2ccccn2)[nH]c(=O)c1CC1CC1` : 0.842

// normalized growth value for `C[C@@H]1C(=O)O[C@H]2[C@H]1CC[C@@]1(C)C=CC(=O)[C@@]3(C)O[C@@]213` : 1.02

// normalized growth value for `COC(=O)Nc1nc2ccc(Sc3ccccc3)cc2[nH]1` : 0.0823

// normalized growth value for `NC(=S)COc1ccccc1Cl` : 1.03

// normalized growth value for CC(OCc1ccccc1)C(NC(=O)OC(C)(C)C)C(N)=O (configuration not stated) : 0.997

// normalized growth value for NC(Cc1c[nH]c2ccccc12)C(=O)O (configuration not stated) : 0.991

// normalized growth value for `COc1cc(-c2ccc(=O)[nH]n2)ccc1OC(F)F` : 1.01

// normalized growth value for `O=C(COc1ccc2c(c1)OCO2)N1CCN(c2ncc(C(F)(F)F)cc2Cl)CC1` : 0.996

// normalized growth value for `C[C@@H]1CC[C@H]2[C@@H](C)C(=O)O[C@@H]3O[C@@]4(C)CC[C@@H]1[C@]32OO4` : 0.789
